Hey, just so you know, these numbers are from PubChem BioAssay (NCI).

test system: M14 melanoma; assay: NCI-60 one-dose screen, 48 h; conditions: 10 µM unless noted
About 83,000 compounds went through this panel and 20% of them were active in at least one assay; those are over-represented in the sample as a whole. The source made the active and inactive calls. Rule for the calls: active = growth percent below 10; inactive = the rest.
Use one of these outcomes when replying: active, inactive

Solved entries (count: 3):
COMPOUND | DISCRETE_LABEL
O=C1/C(=C/c2ccc(F)cc2)COc2ccc(O)c(O)c21 | inactive
COC(=O)c1cc(-c2ccccc2)[nH]c1N/N=C/c1c(Cl)cccc1Cl | active
CC(=O)Cc1nsc(NC(=O)c2cc(-c3cc(Cl)cc(Cl)c3)oc2C)n1 | inactive

Query :: For this compound, state the assay outcome: `Oc1c(Cl)cc(Cl)c2ccc(Cn3cc(-c4ccc(C(F)(F)F)cc4)nn3)nc12`
Result :: inactive

Query :: Would you mind telling me which call this test gave `O=S(=O)(NCCCNc1nccc(-c2c(-c3ccc(F)c(O)c3)nc3occn23)n1)c1ccccc1` ?
Result :: inactive

Query :: How did this test come out for `Oc1c(Cl)cc(Cl)c2ccc(Cn3cc(-c4cc(F)cc(F)c4)nn3)nc12` ?
Result :: inactive

Query :: Could you kindly confirm the outcome this assay logged for `COc1cc(-c2csc(NC(=O)c3cc(-n4cnc(C)c4)cc(C(F)(F)F)c3)n2)cc(OC)c1OC` ?
Result :: inactive

Query :: Assay outcome for `COc1cnc2c(c1)C(=O)c1c-2n(CCCNCCO)c(=O)c2ccncc12` : what was it?
Result :: active

Query :: Please indicate how the test categorized `O=C(NNc1nccc(Nc2ccc(S(=O)(=O)Nc3ccncc3)cc2)n1)c1ccccc1` .
Result :: inactive

Query :: Record request — test call for `Cc1nc(-c2ccccc2)cc2c(O)c(C(=O)NN)[nH]c(=O)c12`
Result :: inactive

Query :: Which outcome was entered for the compound COc1cc2c(c(OC)c1OC)C(=O)CC(c1cccc(NC(=O)c3ccc(Br)cc3)c1)O2 (centres undefined) in this test?
Result :: inactive

Query :: Give the logged outcome of this assay for the following compound: `O=C(Cn1cc(CN2C(=O)c3ccccc3S2(=O)=O)nn1)Nc1nc2ccccc2s1`
Result :: inactive

Query :: Any idea what this test logged for `Cc1c(-n2nnc(-c3nc4ccccc4s3)c2N)c(=O)n(-c2ccccc2)n1C` ?
Result :: inactive

Query :: Outcome? `O=C1NCCC12CCN(c1c(Cl)cncc1-c1ccc(O)cc1)CC2`
Result :: inactive

---

system: A549/ATCC NSCLC; assay: NCI-60 one-dose screen, 48 h; details: 10 µM unless noted
The panel holds about 83,000 compounds, 20% with a hit somewhere; the sample as a whole holds those more often. Calls of active or inactive are those of the source. The calls were made as follows: active = growth percent below 10; inactive = the rest.
API: response.call in true (1) (active), false (0) (inactive)

Below are worked cases with known answers.
MOLECULE | DISCRETE_LABEL
Cn1ccnc1C(=O)C(=O)Nc1ccc(CC(=O)Nc2ccccc2)cc1 | false (0)
Nc1nc2c([nH]1)c1[nH]c3ccccc3c1c1[nH]c3ccccc3c21 | false (0)
O=C(CCCCC1CCSS1)Nc1ncnc2n[nH]c(-c3ccc(Oc4ccccc4)cc3)c12 (stereo unspecified) | false (0)

Query :: Kindly provide the recorded test outcome for the following molecule: `COc1ccc2c(c1)[n+]([O-])c(C(=O)/C=C/C=C(\Cl)c1cc(OC)c(OC)c(OC)c1)c(C)[n+]2[O-]`
Result :: false (0)

Query :: Assay result, entry `O=C(OCc1ccc2cccc(O)c2n1)N1CCN(C(=O)c2cc3cc(F)ccc3[nH]2)CC1` — outcome?
Result :: true (1)

Query :: Outcome logged for `O=c1c2cc(-c3ccccc3)sc2nc2sc(-c3ccccc3)nn12` in this assay:
Result :: false (0)

---

system: RPMI-8226 leukemia; assay: NCI-60 one-dose screen, 48 h (100 = growth as untreated, 0 = no growth, -100 = all killed); settings: 10 µM unless noted
The panel holds about 83,000 compounds, 20% with a hit somewhere; the sample as a whole holds those more often.
In this section, each of the compounds is paired with its reported growth.
Report only the number, with the unit % understood.

Reference set (5 entries):
COMPOUND | growth, %
Cc1ccc(Cc2cnc(NC(=O)c3cc(Br)cs3)s2)cc1 | 53.2
O=C1Nc2ccccc2[C@]12CC(c1ccccc1)=NN2 | 39
C=C1C(=O)O[C@H]2[C@H]1CC/C(COC(=O)NCc1cc[nH]c1)=C\CC[C@@]1(C)O[C@@H]21 | 30.2
Cc1cc2c(O)c(-c3cccc(Cl)c3)c3sc(=O)oc3c2cc1C | 12.1
O=C1/C(=C/c2cccs2)SC(=S)N1CCCN1CCOCC1 | 97.9

Query :: Recorded growth for COc1ccc(C2c3sc4c(F)cccc4c3Oc3nc[nH]c(=O)c32)cc1 (configuration not stated) , please?
Result :: 69.3

Query :: Fill blank: measured growth of the compound `O=C(/C=C/c1cccs1)c1ccc(Cl)nc1` is ____.
Result :: 4.19

---

test system: A549/ATCC NSCLC; assay: NCI-60 one-dose screen, 48 h (100 = growth as untreated, 0 = no growth, -100 = all killed); conditions: 10 µM unless noted
The panel holds about 83,000 compounds, 20% with a hit somewhere; the sample as a whole holds those more often.
Below, each entry is listed with its recorded growth.
Kindly answer with a numeric value in %, unit omitted.

COMPOUND | EXPERIMENTAL_READOUT | QUANTITATIVE_READOUT
Clc1ccc2c(c1)N(c1ncnc3ccc(-c4cnc5[nH]ncc5c4)cc13)CC2 | growth | 6.23
CC(C)(C)n1cc(-c2ccnc(NCCCNS(=O)(=O)c3ccc(F)cc3)c2)c(-c2cccc(F)c2)n1 | growth | 43.5
CN(C)CCCC1(c2ccc(F)cc2)OCc2cc(-c3cccc4[nH]ccc34)ccc21 (stereo not given) | growth | 28.3
O=C(OCc1ccc2c(Cl)cc(Cl)c(O)c2n1)n1cncn1 | growth | 22.1
COc1cccc(NC(=O)Cn2cc(CN3CCN(c4ccnc5cc(Cl)ccc45)CC3)nn2)c1 | growth | 87.9

Query :: // returns reported growth for input `Cc1nc2sc(C(=O)Nc3cccc(Cl)c3C)c(N)c2cc1C(=O)c1ccccc1`
Result :: 19.9

Query :: Need growth, item O=C1CNC(c2ccccc2)C(c2ccccc2)N1 (stereo not given)
Result :: 93.5

Query :: // growth lookup, key: `O=C(CSc1nc2ccc([N+](=O)[O-])cc2[nH]1)Nc1ccc(F)cc1`
Result :: 58.2

Query :: Bench note: what growth did `O=C(NCc1ccccc1)Nc1ccccc1CNc1nc(Nc2ccc(OCCN3CCCC3)cc2)ncc1Cl` show?
Result :: 97.5

Query :: Item under review: `COc1ccc(-c2nc3c(c(-c4ccccc4)nn3-c3ccccc3)c(-c3ccc(N4CCN(C)CC4)cc3)c2C#N)cc1` . Reported growth?
Result :: 89.3

Query :: Item `C=C(C)[C@@H]1CC[C@]2(C(=O)N3CCN(C)CC3)CC[C@]3(C)[C@H](CC[C@@H]4[C@@]5(C)CC(=C/c6ccncc6)/C(=N/O)C(C)(C)[C@@H]5CC[C@]43C)[C@@H]12` has what recorded growth?
Result :: 73.9

Query :: // lookup growth for `COc1ccc2cc(-c3ccc(NC(C)=O)c(=O)o3)ccc2c1`
Result :: 87.5

Query :: Consider the compound `O=C1/C(=C/c2ccccc2Br)COc2ccc(O)c(O)c21` and give its measured growth.
Result :: 35.1

Query :: Given the entry `O=C(Cn1c(-c2ccc([N+](=O)[O-])cc2)nc2ccccc21)NNC(=O)c1cccnc1` , report its measured growth.
Result :: 91.1

Query :: Please report the recorded growth for `COc1ccc(C(=O)Nc2ncc(Cc3ccc(F)cc3)s2)cc1` .
Result :: 23.3

---

As shown below, each of these compounds has a reported growth value.
tested on: SW-620 colon; assay: NCI-60 one-dose screen, 48 h (100 = growth as untreated, 0 = no growth, -100 = all killed); conditions: 10 µM unless noted
Compounds without any hit were thinned out: in the full panel of roughly 83,000, 20% have a hit.
# value in %; strip the unit string

Before answering, review these 5 worked examples.
COMPOUND | EXPERIMENTAL_READOUT | QUANTITATIVE_READOUT
COC(=O)CNC(=O)[C@H](Cc1ccccc1)NCc1ccncc1 | growth | 102
CN1CCN(c2ccc(NC(=O)c3cncnc3Nc3ccc(OCc4ccccn4)c(Cl)c3)cc2)CC1 | growth | 4.15
CC(C)(C)n1cc(-c2ccnc(NCCNS(=O)(=O)c3cccc4ccccc34)c2)c(-c2cccc(F)c2)n1 | growth | -26
CC(C)n1cnc2c(=S)nc[nH]c21 | growth | 103
O=C(CCc1nnc(Cn2cnc3nc[nH]c3c2=O)o1)c1nc2ncccc2[nH]1 | growth | 96

Query :: Suppose we examine the compound N#CC1=C(c2ccc(Cl)cc2)Nc2c(c(-c3ccc(Cl)cc3)nn2-c2ccccc2)C12C(=O)Nc1ccc(Cl)cc12 (stereo unspecified) ; what growth value has been reported?
Result :: 54.8

Query :: Entry `CCc1nc2c(=O)[nH]cnc2o1` : reported growth = ?
Result :: 106

Query :: Need growth of `CN1CCN(C(=O)c2ccc(NC(=O)Nc3ccc(-c4nc(N5CCOCC5)c5cccn5n4)cc3)cc2)CC1` , thanks.
Result :: 11

Query :: Name the recorded growth for `CCOC(=O)c1c(C)nc2c(c1N)CC(=O)N2Cc1cc(F)cc(Cl)c1` .
Result :: 103

Query :: Which growth value is on record for `CSc1nc2sc3c(c2c(=O)n1-c1ccc([N+](=O)[O-])cc1)CCCCC3` ?
Result :: 95.4

Query :: May I ask what growth has been recorded for `O=S(=O)(Nc1ccc(Cl)cc1)c1ccc(-c2cnc(C3CC3)o2)cc1` ?
Result :: 17.4

Query :: Given the compound `COc1ccc(/C(C)=C(/c2ccc(OCCCN(C)C)cc2)c2ccc(OC(=O)Cc3ccccc3)cc2)cc1` , what is its reported growth?
Result :: 91.8

Query :: Suppose we examine the compound `COc1cccc([C@H]2c3[nH]c4ccccc4c3C[C@H]3C(=O)N(CCCCCCC(=O)NO)CC(=O)N23)c1` ; what growth value has been reported?
Result :: 57.4

Query :: Looking for the measured growth of `CCCCCCNC(=O)Oc1ccc(/C(=C(/C)Cc2ccc(OC)cc2)c2ccc(OCCCN(C)C)cc2)cc1` , can you help?
Result :: -21.8

Query :: Query (compound): `CCCCC(=O)c1ccco1` ; field requested: growth
Result :: 97

Query :: Which growth value belongs to `CNC(=O)c1cc(Oc2ccc3c(c2)sc2nc(-c4cc(OC)c(OC)c(OC)c4)cn23)ccn1` ?
Result :: 77.4

Query :: Need growth, item `OCCOCCN(Cc1ccccn1)Cc1cc(I)cc(I)c1O`
Result :: 95.5

Query :: What value of measured growth is listed for `O=C1c2c(c3c4ccc(Br)cc4oc3c3[nH]c4ccccc4c23)C(=O)N1O` ?
Result :: 37.3
